Biological target: human Claudin 18.2 (CLDN18.2) (human, UniProt P56856-2 1-261)
Assay: cell-based or functional assay
Parameter measured: ADCC EC50, NUGC4-CLDN18.2, PBMC (nM)
# number only, unit nM dropped from output

These solved cases illustrate the format of a correct answer.
| Binder | ADCC EC50, NUGC4-CLDN18.2, PBMC (nM) |
| --- | --- |
| 413H9F8-H1L3 (antibody, V domains shown, humanized IgG; constant regions not specified) VH: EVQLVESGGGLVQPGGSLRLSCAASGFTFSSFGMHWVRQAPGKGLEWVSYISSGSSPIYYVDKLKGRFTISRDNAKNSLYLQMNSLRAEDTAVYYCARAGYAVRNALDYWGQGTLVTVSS VL: DIVMTQSPDSLAVSLGERATINCKSSQSLLNVGNQKNYLAWYQQKPGQPPKLLIYGASTRESGVPDRFIGSGSGTDFTLTISSLQAEDVAVYFCQNDLFYPLTFGGGTKVEIK | 4.38 |
| 413H9F8-H3L4 (antibody, V domains shown, humanized IgG; constant regions not specified) VH: EVQLVESGGGLVQPGGSLRLSCAASGFTFSSFGMHWVRQAPGKGLEWVAYISSGSSPIYYVDKLKGRFTVSRDNAKNSLYLQMNSLRAEDTAVYYCARAGYAVRNALDYWGQGTLVTVSS VL: DIVMTQSPDSLAVSLGERATISCKSSQSLLNVGNQKNYLAWYQQKPGQPPKLLIYGASTRESGVPDRFIGSGSGTDFTLTISSLQAEDVAVYFCQNDLFYPLTFGAGTKVEIK | 6.09 |
| 364D1A7-H4L5 (antibody, V domains shown, humanized IgG; constant regions not specified) VH: DVQLVESGGGLVQPGGSLRLSCAASGFTFSSFGMHWVRQAPGKGLEWVAYISSGSGSIYYADTVKGRFTLSRDNPKNTLYLQMNSLRAEDTAVYYCATSYYYGNALEYWGQGTTVTVSS VL: DVVLTQSPDSLAVSLGERATISCKSSQSLFNVGNQKNYLTWYQQKPGQTPTLLIYWASTRKSGVPDRFTGSGSGTDFTLTISSLQAEDVAVYYCQNVYSYPLTFGAGTKVEIK | 6.4 |

# input binder: 413H9F8-cp5 (antibody, V domains shown, humanized IgG; constant regions not specified) VH: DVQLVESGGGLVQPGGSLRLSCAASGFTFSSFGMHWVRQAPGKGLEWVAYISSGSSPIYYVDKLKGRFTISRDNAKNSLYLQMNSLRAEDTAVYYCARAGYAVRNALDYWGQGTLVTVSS VL: DIVMTQSPPTLSLSPGERVTLSCKSSQSLLNVGNQKNYLAWYQQKPGQAPRLLIYGASTRESGIPDRFSGSGSGTDFTLTISSLQPEDFAVYYCQNDLFYPLTFGGGTKVEIK ; wanted: its ADCC EC50, NUGC4-CLDN18.2, PBMC 7.75

Also need 413H9F8-cp1 (antibody, V domains shown, humanized IgG; constant regions not specified) VH: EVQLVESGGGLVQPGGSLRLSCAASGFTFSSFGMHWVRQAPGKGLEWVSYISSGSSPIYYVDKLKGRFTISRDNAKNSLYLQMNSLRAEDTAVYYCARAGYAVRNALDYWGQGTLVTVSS VL: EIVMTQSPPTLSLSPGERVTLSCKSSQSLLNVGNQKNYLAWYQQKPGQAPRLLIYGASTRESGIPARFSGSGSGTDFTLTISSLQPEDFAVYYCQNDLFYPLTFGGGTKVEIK , thanks. 7.18

What do we get for 413H9F8-cp7 (antibody, V domains shown, humanized IgG; constant regions not specified) VH: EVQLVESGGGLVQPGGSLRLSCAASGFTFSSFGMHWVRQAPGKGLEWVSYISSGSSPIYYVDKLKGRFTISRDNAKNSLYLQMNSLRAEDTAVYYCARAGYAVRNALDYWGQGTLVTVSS VL: DIVMTQSPPTLSLSPGERVTLSCKSSQSLLNVGNQKNYLAWYQQKPGQAPKLLIYGASTRESGIPDRFSGSGSGTDFTLTISSLQPEDFAVYYCQNDLFYPLTFGGGTKVEIK ? 6.68

What do you get for 413H9F8-H1L1 (antibody, V domains shown, humanized IgG; constant regions not specified) VH: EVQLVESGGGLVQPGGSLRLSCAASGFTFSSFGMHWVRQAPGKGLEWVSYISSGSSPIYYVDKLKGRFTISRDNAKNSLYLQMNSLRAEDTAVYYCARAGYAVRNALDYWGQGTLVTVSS VL: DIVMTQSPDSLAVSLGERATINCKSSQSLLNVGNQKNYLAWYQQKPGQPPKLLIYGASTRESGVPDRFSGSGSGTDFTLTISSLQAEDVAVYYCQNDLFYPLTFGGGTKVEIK ? 8.98

Also need 413H9F8-cp8 (antibody, V domains shown, humanized IgG; constant regions not specified) VH: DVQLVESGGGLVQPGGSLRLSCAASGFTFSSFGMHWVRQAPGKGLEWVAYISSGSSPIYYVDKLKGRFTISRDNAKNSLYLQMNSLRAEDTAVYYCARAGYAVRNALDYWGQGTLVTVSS VL: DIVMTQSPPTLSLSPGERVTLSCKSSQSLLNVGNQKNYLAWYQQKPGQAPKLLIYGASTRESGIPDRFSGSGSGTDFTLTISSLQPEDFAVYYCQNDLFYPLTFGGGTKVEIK , thanks. 8.85

Could you do the same for 364D1A7-H2L2 (antibody, V domains shown, humanized IgG; constant regions not specified) VH: EVQLVESGGGLVQPGGSLRLSCAASGFTFSSFGMHWVRQAPGKGLEWVAYISSGSGSIYYADTVKGRFTISRDNPKNSLYLQMNSLRAEDTAVYYCATSYYYGNALEYWGQGTTVTVSS VL: DIVLTQSPDSLAVSLGERATINCKSSQSLFNVGNQKNYLTWYQQKPGQTPKLLIYWASTRKSGVPDRFSGSGSGTDFTLTISSLQAEDVAVYYCQNVYSYPLTFGGGTKVEIK , please? 9.69

Follow-up entry: 364D1A7-H4L1 (antibody, V domains shown, humanized IgG; constant regions not specified; also called 364D1A7-H41L) VH: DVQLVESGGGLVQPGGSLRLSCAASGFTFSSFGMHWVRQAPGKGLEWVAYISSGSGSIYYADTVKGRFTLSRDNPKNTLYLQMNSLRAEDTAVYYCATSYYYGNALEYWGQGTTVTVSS VL: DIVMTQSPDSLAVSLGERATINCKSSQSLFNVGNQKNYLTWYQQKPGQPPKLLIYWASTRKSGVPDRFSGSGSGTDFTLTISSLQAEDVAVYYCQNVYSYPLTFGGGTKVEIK 7.58

Then this binder: 413H9F8-H4L3 (antibody, V domains shown, humanized IgG; constant regions not specified) VH: EVQLVESGGGLVQPGGSLRLSCAASGFTFSSFGMHWVRQAPGKGLEWVAYISSGSSPIYYVDKLKGRFTVSRDNAKNSLYLQMTSLRAEDTAVYYCARAGYAVRNALDYWGQGTLVTVSS VL: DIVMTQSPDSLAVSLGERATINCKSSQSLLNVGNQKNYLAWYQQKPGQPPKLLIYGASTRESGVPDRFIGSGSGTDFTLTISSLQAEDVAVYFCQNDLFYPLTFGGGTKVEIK 7.01
